Each entry below lists one item and its recorded Henry solubility constant Hcp value.
Test: Henry solubility constant Hcp at 298.15 K (mol/(m3 Pa))
Settings: reference: Scharlin and Battino (1994)
PROPERTY_MEASURED: Henry solubility constant Hcp

- COMPOUND: "FC1(F)C(F)(F)C(F)(F)C1(F)F [octafluorocyclobutane]"
  PROPERTY_MEASURED: "Henry solubility constant Hcp"
  MEASURED_RESULT: "1.3e-06"
- COMPOUND: "FC(F)(F)F [tetrafluoromethane]"
  PROPERTY_MEASURED: "Henry solubility constant Hcp"
  MEASURED_RESULT: "2.1e-06"
- COMPOUND: "FC(F)(F)Cl [chlorotrifluoromethane]"
  PROPERTY_MEASURED: "Henry solubility constant Hcp"
  MEASURED_RESULT: "9e-06"
- COMPOUND: "FC(F)(Cl)Cl [dichlorodifluoromethane]"
  PROPERTY_MEASURED: "Henry solubility constant Hcp"
  MEASURED_RESULT: "2.9e-05"

* * *

Assay: Henry solubility constant Hcp at 298.15 K (mol/(m3 Pa))
Conditions: reference: Sieg et al. (2009)
Rule: Henry solubility constant Hcp under 0.002 gives n, otherwise y.

- LINE_NOTATION: "CCOC(C)(C)C"
  LABEL_CLASS: "y"
- LINE_NOTATION: "Cc1ccccc1"
  LABEL_CLASS: "n"
- LINE_NOTATION: "c1ccccc1"
  LABEL_CLASS: "n"
- LINE_NOTATION: "CCc1ccccc1"
  LABEL_CLASS: "n"

* * *

Assay: Henry solubility constant Hcp at 298.15 K (mol/(m3 Pa))
Settings: reference: Lincoff and Gossett (1984)
Each entry below lists one item and its recorded Henry solubility constant Hcp value.

- COMPOUND: "CC(Cl)(Cl)Cl [1,1,1-trichloroethane]"
  Henry solubility constant Hcp: 0.00059
- COMPOUND: "ClC=C(Cl)Cl [trichloroethene]"
  Henry solubility constant Hcp: 0.00097
- COMPOUND: "ClC(Cl)=C(Cl)Cl [tetrachloroethene]"
  Henry solubility constant Hcp: 0.00057
- COMPOUND: "ClCCl [dichloromethane]"
  Henry solubility constant Hcp: 0.0034

* * *

Assay: Henry solubility constant Hcp at 298.15 K (mol/(m3 Pa))
Settings: reference: Dohnal and Fenclová (1995)
Rule: Henry solubility constant Hcp under 10 gives N, otherwise Y.

- COMPOUND: "Cc1ccc(C)c(O)c1 [1-hydroxy-2,5-dimethylbenzene]"
  LABEL_CLASS: "N"
- COMPOUND: "Cc1ccc(O)cc1 [1-hydroxy-4-methylbenzene]"
  LABEL_CLASS: "Y"
- COMPOUND: "Cc1ccc(O)c(C)c1 [1-hydroxy-2,4-dimethylbenzene]"
  LABEL_CLASS: "N"
- COMPOUND: "Cc1ccccc1O [1-hydroxy-2-methylbenzene]"
  LABEL_CLASS: "N"
- COMPOUND: "Cc1cc(C)cc(O)c1 [1-hydroxy-3,5-dimethylbenzene]"
  LABEL_CLASS: "Y"
- COMPOUND: "Cc1cccc(O)c1 [1-hydroxy-3-methylbenzene]"
  LABEL_CLASS: "Y"

* * *

Each entry below lists one item and its recorded Henry solubility constant Hcp value.
Experiment: Henry solubility constant Hcp at 298.15 K (mol/(m3 Pa))
Settings: reference: Butler et al. (1935)

- COMPOUND: "CCC(C)(C)O"
  Henry solubility constant Hcp: 0.71
- COMPOUND: "CC(C)CO"
  Henry solubility constant Hcp: 0.83
- COMPOUND: "CCC(C)CO (centres undefined)"
  Henry solubility constant Hcp: 0.7
- COMPOUND: "CCO"
  Henry solubility constant Hcp: 1.9
- COMPOUND: "CCCO"
  Henry solubility constant Hcp: 1.4
- COMPOUND: "CCCCCO"
  Henry solubility constant Hcp: 0.78
- COMPOUND: "CC(C)O"
  Henry solubility constant Hcp: 1.2
- COMPOUND: "CCCC(C)O (centres undefined)"
  Henry solubility constant Hcp: 0.67
- COMPOUND: "CCC(C)O (centres undefined)"
  Henry solubility constant Hcp: 0.96

* * *

Experiment: Henry solubility constant Hcp at 298.15 K (mol/(m3 Pa))
Conditions: reference: Perlinger et al. (1993)
Each entry below lists one item and its recorded Henry solubility constant Hcp value.
PROPERTY_MEASURED: Henry solubility constant Hcp

- LINE_NOTATION: "Cc1ccccc1"
  PROPERTY_MEASURED: "Henry solubility constant Hcp"
  MEASURED_RESULT: 0.0015
- LINE_NOTATION: "c1ccccc1"
  PROPERTY_MEASURED: "Henry solubility constant Hcp"
  MEASURED_RESULT: 0.0017
- LINE_NOTATION: "CCCc1ccccc1"
  PROPERTY_MEASURED: "Henry solubility constant Hcp"
  MEASURED_RESULT: 0.00086
- LINE_NOTATION: "CCc1ccccc1"
  PROPERTY_MEASURED: "Henry solubility constant Hcp"
  MEASURED_RESULT: 0.0013
- LINE_NOTATION: "CCCCc1ccccc1"
  PROPERTY_MEASURED: "Henry solubility constant Hcp"
  MEASURED_RESULT: 0.00062

* * *

Experiment: Henry solubility constant Hcp at 298.15 K (mol/(m3 Pa))
Conditions: reference: Xu and Kropscott (2014)
PROPERTY_MEASURED: Henry solubility constant Hcp

- LINE_NOTATION: "C[Si](C)(C)O"
  MEASURED_RESULT: 0.07
- LINE_NOTATION: "C[Si](C)(C)O[Si](C)(C)C"
  MEASURED_RESULT: "1.3e-06"
- LINE_NOTATION: "C[Si](C)(C)O[Si](C)(C)O[Si](C)(C)O[Si](C)(C)C"
  MEASURED_RESULT: "1.4e-07"
- LINE_NOTATION: "C[Si]1(C)O[Si](C)(C)O[Si](C)(C)O[Si](C)(C)O[Si](C)(C)O1"
  MEASURED_RESULT: "2.8e-07"
- LINE_NOTATION: "C[Si](C)(C)O[Si](C)(C)O[Si](C)(C)C"
  MEASURED_RESULT: "3.4e-07"

* * *

Each entry below lists one item and its recorded Henry solubility constant Hcp at 291 K value.
Test: Henry solubility constant Hcp at 291 K (mol/(m3 Pa))
Conditions: reference: Treves et al. (2000)
PROPERTY_MEASURED: Henry solubility constant Hcp at 291 K

- MOLECULE: "O=[N+]([O-])OCCCCO [4-nitrooxy-1-butanol]"
  PROPERTY_MEASURED: "Henry solubility constant Hcp at 291 K"
  MEASURED_RESULT: 290
- MOLECULE: "CCC(O)CO[N+](=O)[O-] (centres undefined) [1-nitrooxy-2-butanol]"
  PROPERTY_MEASURED: "Henry solubility constant Hcp at 291 K"
  MEASURED_RESULT: 89
- MOLECULE: "CC(O)CCO[N+](=O)[O-] (centres undefined) [4-nitrooxy-2-butanol]"
  PROPERTY_MEASURED: "Henry solubility constant Hcp at 291 K"
  MEASURED_RESULT: 130
- MOLECULE: "CCC(CO)O[N+](=O)[O-] (centres undefined) [2-nitrooxy-1-butanol]"
  PROPERTY_MEASURED: "Henry solubility constant Hcp at 291 K"
  MEASURED_RESULT: 88

* * *

Assay: Henry solubility constant Hcp at 298.15 K (mol/(m3 Pa))
Settings: reference: Khan and Brimblecombe (1992)

- COMPOUND: "CC(C)CC(=O)O [3-methylbutanoic acid]"
  Henry solubility constant Hcp: 12
- COMPOUND: "CCCCC(=O)O [pentanoic acid]"
  Henry solubility constant Hcp: 21
- COMPOUND: "CCCCCC(=O)O [hexanoic acid]"
  Henry solubility constant Hcp: 13
- COMPOUND: "CC(=O)C(=O)O [2-oxopropanoic acid]"
  Henry solubility constant Hcp: 3100

* * *

Test: Henry solubility constant Hcp at 298.15 K (mol/(m3 Pa))
Conditions: reference: Reichl (1995)

- COMPOUND: "CC(F)F"
  Henry solubility constant Hcp: 0.00049
- COMPOUND: "FC(F)(F)CCl"
  Henry solubility constant Hcp: 0.00041
- COMPOUND: "C=CC"
  Henry solubility constant Hcp: "5.4e-05"
- COMPOUND: "FC(F)Cl"
  Henry solubility constant Hcp: 0.00035
- COMPOUND: "CCCl"
  Henry solubility constant Hcp: 0.00093
- COMPOUND: "FC(F)(Cl)Cl"
  Henry solubility constant Hcp: "3e-05"
- COMPOUND: "FC(F)C(F)(F)F"
  Henry solubility constant Hcp: "3.5e-05"
- COMPOUND: "FC(F)(F)F"
  Henry solubility constant Hcp: "2e-06"
- COMPOUND: "C=C"
  Henry solubility constant Hcp: "4.8e-05"
- COMPOUND: "FC(Cl)C(F)(F)F (configuration not stated)"
  Henry solubility constant Hcp: 0.00011
- COMPOUND: "FC(F)(F)Cl"
  Henry solubility constant Hcp: "8.9e-06"
- COMPOUND: "FCC(F)(F)F"
  Henry solubility constant Hcp: 0.00016
